experimentalParameters: 343.15 K; 101.33 kPa; Liquid; Single path-length method
Parameter: speed of sound. Scope: all listed entries.
readoutKind: speed of sound (m/s)

[[record]]
molecule = "CCCCCCCC(=O)[O-].CCCCCCCC[NH+](CCCCCCCC)CCCCCCCC [trioctylammonium octanoate]"
val = 1223.7

[[record]]
molecule = "CCCC(=O)[O-].CCCCCCCC[NH+](CCCCCCCC)CCCCCCCC [trioctylammonium butanoate]"
val = 1206.8

[[record]]
molecule = "CCCCCCCC(=O)[O-].CCCCCC[NH+](CCCCCC)CCCCCC [trihexylammonium octanoate]"
val = 1194

[[record]]
molecule = "CCCC(=O)[O-].CCCCCC[NH+](CCCCCC)CCCCCC [trihexylammonium butanoate]"
val = 1171.3

[[record]]
molecule = "CCCCCC(=O)[O-].CCCCCCCC[NH+](CCCCCCCC)CCCCCCCC [trioctylammonium hexanoate]"
val = 1214.5

[[record]]
molecule = "CCCCCC(=O)[O-].CCCCCC[NH+](CCCCCC)CCCCCC [trihexylammonium hexanoate]"
val = 1180.3

